System: EGFR Del19/T790M/C797S (H1975-clone #28)
PROTOCOL: EGFR degradation HTRF assay, H1975-clone #28 DTC cells
Type: cell-based
ASSAY_CONTEXT: H1975 # 28 DTC cells; maximum percentage of inhibition (degradation)
Decide using Dmax (%) H1975 # 28 DTC: a value greater than or equal to 80% is condition met, a smaller one is condition not met.

COMPOUND	CATEGORY
CCOc1cc(N2CCC(N3CCN(C(=O)[C@H]4CN(c5cc(F)c([C@H]6CCC(=O)NC6=O)c(F)c5)CC4(C)C)CC3)CC2)c(C)cc1Nc1ncc(Br)c(Nc2ccc3nc(C)ccc3c2P(C)(C)=O)n1	condition not met
CCc1cc(Nc2ncc(Br)c(Nc3ccc4nc(C)ccc4c3P(C)(C)=O)n2)c(OC)cc1N1CCC(N2CCN(CCc3cccc4c3oc(=O)n4C3CCC(=O)NC3=O)CC2)CC1 (centres unmarked)	condition met
CCc1ncc2c(P(C)(C)=O)c(Nc3nc(Nc4cc(C)c(N5CCC(N6CCN(CCc7cc(F)c([C@H]8CCC(=O)NC8=O)c(F)c7)CC6)CC5)cc4OC)ncc3Br)ccc2n1	condition met
[2H]C1([2H])CC([2H])(c2c(F)cc(CCN3CCN(C4CCN(c5cc(OCC)c(Nc6ncc(Br)c(Nc7ccc8nc(C)ccc8c7P(C)(C)=O)n6)cc5CC)CC4)CC3)cc2F)C(=O)NC1=O (centres unmarked)	condition not met
CCOc1cc(N2CCC(N3CCN(CCc4cc(F)c([C@H]5CCC(=O)NC5=O)c(F)c4)CC3)CC2)c(CC)cc1Nc1ncc(Br)c(Nc2ccc3nc(CC)ncc3c2P(C)(C)=O)n1	condition met

---

Catalogue of Dmax (%) H1975 # 28 DTC readings, one per entry.
Tested on: EGFR Del19/T790M/C797S (H1975-clone #28)
PROTOCOL: EGFR degradation HTRF assay, H1975-clone #28 DTC cells
Type: cell-based
ASSAY_CONTEXT: H1975 # 28 DTC cells; maximum percentage of inhibition (degradation)
Protocol: H1975-clone #28(Del19/T790M/C797S) and H1975-clone #23(Del19/C797S). EGFR-Del19/T790M/C797S and EGFR-Del19/C797S were stably expressed in H1975 cell lines by lentivirus-mediated over-expression, respectively. […] The inhibition (degradation) percentage of the compound was calculated by the following equation: Inhibition percentage of Compound=100-100×(Signal-low control)/(High control-low control), wherein signal=each test compound group […]

MOLECULE	Dmax (%) H1975 # 28 DTC
CCOc1cc(N2CCC(N3CCN(CCCc4cc(OC)cc5c4oc(=O)n5C4CCC(=O)NC4=O)CC3)CC2)c(CC)cc1Nc1ncc(Br)c(Nc2ccc3c(=O)n(CC)ncc3c2P(C)(C)=O)n1 (centres unmarked) [Example 598]	81.26
CCc1ccc2c(P(C)(C)=O)c(Nc3nc(Nc4cc(CC)c(N5CCC(N6CCN(CCc7cccc8c7n(C)c(=O)n8C7CCC(=O)NC7=O)CC6)CC5)cc4OC)ncc3Br)ccc2n1 (centres unmarked) [Example 451]	70.68
CCc1cc(Nc2ncc(Br)c(Nc3ccc4c(=O)n(C5CC5)ncc4c3P(C)(C)=O)n2)c(OC)cc1N1CCC(N2CCN(C(=O)[C@@H]3CCN(c4cc(F)c([C@H]5CCC(=O)NC5=O)c(F)c4)C3)CC2)CC1 [Example 526]	83.99
CCc1ccc2c(P(C)(C)=O)c(Nc3nc(Nc4cc(CC)c(N5CCC(N6CCN(CCc7c(F)ccc8c7n(C)c(=O)n8C7CCC(=O)NC7=O)CC6)CC5)cc4OC)ncc3Br)ccc2n1 (centres unmarked) [Example 452]	78.26
CCOc1cc(N2CCC(N3CCN(CCc4cccc5c4C(C)(C)C(=O)N5C4CCC(=O)NC4=O)[C@H](CO)C3)CC2)c(CC)cc1Nc1ncc(Br)c(Nc2ccc3c(=O)n(CC)ncc3c2P(C)(C)=O)n1 (some centres unmarked) [Example 641]	76.33
